- study_target: HiBit-WIZ fusion protein (Homo sapiens, UniProt O95785+Q96SW2)
- Sequence (O95785 whole entry, the tested form may be a part): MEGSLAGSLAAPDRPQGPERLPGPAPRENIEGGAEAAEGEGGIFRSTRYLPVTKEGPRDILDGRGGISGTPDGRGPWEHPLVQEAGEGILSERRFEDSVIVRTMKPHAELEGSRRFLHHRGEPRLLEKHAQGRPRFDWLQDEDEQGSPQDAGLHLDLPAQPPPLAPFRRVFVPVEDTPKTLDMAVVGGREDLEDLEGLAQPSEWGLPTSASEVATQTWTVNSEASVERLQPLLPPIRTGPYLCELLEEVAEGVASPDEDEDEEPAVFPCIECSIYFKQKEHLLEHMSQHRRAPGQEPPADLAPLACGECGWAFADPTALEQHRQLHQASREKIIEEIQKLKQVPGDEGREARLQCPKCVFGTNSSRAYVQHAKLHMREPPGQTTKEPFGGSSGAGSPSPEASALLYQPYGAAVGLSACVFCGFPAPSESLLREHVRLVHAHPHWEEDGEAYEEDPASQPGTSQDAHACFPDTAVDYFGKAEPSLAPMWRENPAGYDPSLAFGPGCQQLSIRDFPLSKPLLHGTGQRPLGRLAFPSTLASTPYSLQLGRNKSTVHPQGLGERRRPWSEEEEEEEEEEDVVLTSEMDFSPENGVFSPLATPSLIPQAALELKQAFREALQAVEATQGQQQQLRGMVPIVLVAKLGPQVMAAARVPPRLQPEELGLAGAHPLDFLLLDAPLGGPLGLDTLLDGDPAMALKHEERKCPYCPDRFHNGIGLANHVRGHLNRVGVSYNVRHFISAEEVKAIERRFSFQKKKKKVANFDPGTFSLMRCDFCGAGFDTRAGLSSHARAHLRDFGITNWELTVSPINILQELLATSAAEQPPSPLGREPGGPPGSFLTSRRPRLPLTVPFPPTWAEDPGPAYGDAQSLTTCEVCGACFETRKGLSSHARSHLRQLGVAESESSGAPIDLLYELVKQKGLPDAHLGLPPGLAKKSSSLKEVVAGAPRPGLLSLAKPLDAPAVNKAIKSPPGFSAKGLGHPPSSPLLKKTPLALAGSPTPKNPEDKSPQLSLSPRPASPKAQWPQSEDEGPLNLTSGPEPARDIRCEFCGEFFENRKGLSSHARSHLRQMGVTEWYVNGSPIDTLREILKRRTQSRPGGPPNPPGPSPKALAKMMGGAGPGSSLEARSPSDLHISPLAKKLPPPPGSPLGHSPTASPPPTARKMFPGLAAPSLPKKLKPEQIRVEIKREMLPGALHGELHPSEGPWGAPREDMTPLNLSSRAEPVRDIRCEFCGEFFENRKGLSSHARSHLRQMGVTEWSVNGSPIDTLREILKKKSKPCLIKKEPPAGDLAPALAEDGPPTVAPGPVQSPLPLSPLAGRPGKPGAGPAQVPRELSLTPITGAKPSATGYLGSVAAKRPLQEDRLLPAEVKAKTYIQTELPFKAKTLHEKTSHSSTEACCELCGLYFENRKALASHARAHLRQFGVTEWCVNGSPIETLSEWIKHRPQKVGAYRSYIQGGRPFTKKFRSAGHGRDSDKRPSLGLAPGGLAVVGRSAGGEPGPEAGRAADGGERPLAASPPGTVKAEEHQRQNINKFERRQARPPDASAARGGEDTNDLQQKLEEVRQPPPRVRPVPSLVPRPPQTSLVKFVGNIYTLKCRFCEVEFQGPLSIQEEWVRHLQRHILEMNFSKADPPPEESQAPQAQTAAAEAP
- Sequence (Q96SW2 whole entry, the tested form may be a part): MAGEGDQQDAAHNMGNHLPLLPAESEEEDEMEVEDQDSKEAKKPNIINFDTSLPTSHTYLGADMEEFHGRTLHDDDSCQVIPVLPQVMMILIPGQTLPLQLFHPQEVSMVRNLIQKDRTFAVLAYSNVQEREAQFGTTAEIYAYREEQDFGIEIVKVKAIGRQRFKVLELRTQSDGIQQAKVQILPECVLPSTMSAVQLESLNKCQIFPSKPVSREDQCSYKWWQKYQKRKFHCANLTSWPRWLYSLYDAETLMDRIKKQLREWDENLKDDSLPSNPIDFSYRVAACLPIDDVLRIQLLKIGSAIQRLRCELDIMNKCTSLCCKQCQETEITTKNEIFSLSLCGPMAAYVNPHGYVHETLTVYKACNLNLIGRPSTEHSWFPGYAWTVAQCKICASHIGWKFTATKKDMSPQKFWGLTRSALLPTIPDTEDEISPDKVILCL
- Sequence (Q16531 whole entry partner, the tested form may be a part): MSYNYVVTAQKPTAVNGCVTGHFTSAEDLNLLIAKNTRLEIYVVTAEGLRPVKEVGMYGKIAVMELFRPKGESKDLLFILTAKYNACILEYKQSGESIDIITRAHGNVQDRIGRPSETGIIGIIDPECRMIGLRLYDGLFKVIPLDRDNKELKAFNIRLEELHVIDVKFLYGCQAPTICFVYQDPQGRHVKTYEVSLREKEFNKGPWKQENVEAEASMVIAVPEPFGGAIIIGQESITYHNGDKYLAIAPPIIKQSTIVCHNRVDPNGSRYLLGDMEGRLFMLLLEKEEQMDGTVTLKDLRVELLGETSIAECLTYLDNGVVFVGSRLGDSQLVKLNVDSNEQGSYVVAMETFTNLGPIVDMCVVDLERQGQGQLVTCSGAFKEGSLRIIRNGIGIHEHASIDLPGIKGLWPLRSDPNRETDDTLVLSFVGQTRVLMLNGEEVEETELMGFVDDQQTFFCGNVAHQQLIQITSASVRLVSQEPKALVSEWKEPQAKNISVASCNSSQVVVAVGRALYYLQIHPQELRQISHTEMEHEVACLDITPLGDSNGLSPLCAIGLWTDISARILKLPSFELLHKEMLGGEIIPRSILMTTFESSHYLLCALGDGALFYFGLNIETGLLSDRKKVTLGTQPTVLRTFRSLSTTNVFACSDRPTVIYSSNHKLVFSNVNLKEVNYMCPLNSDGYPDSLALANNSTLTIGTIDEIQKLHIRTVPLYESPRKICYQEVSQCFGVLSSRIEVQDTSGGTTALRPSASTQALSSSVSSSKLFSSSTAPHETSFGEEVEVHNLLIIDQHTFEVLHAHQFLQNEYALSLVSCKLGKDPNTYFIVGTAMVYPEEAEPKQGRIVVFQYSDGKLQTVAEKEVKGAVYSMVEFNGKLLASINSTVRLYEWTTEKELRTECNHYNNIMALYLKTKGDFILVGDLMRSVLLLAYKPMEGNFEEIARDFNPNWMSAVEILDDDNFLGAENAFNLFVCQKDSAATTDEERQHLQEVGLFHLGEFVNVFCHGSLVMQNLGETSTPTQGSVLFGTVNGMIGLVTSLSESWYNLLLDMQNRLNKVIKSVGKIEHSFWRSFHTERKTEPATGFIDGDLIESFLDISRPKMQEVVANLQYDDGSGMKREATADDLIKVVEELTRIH
- assay_remarks: Quantification of WIZ protein levels in HiBit tag fusion protein assay (WIZ HiBit assay in 293T cells)
- Type: cell-based
- Design: dose or concentration left out as unconfirmed
- cond: HEK-293T, 100 minus Amax; 293T cells; read-out: % degradation of WIZ (100-Amax)
Measured Dmax values are reported for all entries that follow.
Give the value, in units of %, as a plain number.

compound | endpoint_unit | value
O=C1CCC(N2Cc3cc(OC[C@H]4CCCCN4Cc4ccc(N5CCOCC5)nc4)ccc3C2=O)C(=O)N1 (some centres unmarked) | % | 80.8
O=C1CCC(N2Cc3cc(OC[C@H]4CCCCN4Cc4cnn(-c5cnccn5)c4)ccc3C2=O)C(=O)N1 (some centres unmarked) [Compound I-50ct] | % | 80.2
Cn1c(CN2CCCC[C@@H]2COc2ccc3c(c2)CN(C2CCC(=O)NC2=O)C3=O)nc2ccccc21 (some centres unmarked) [Compound I-50cw] | % | 39
CC(C)N1CCC(CN2CCCC[C@@H]2COc2ccc3c(c2)CN(C2CCC(=O)NC2=O)C3=O)CC1 (some centres unmarked) [Compound I-50ea] | % | 81

Note to self: Dmax of COc1ccccc1CN1CCCC[C@H]1COc1ccc2c(c1)CN(C1CCC(=O)NC1=O)C2=O (some centres unmarked) [Compound I-50d] with HiBit-WIZ fusion protein (Homo sapiens, UniProt O95785+Q96SW2) was 78.3

====

Dmax overview
- study_target: HiBit-WIZ fusion protein (Homo sapiens, UniProt O95785+Q96SW2)
- assay_remarks: Quantification of WIZ protein levels in HiBit tag fusion protein assay (WIZ HiBit assay in 293T cells)
- Assay type: cell-based
- Set-up: dose or concentration left out as unconfirmed
- cond: HEK-293T, read-out: % degradation of WIZ (100-Amax), 100 minus Amax; 293T cells

For orientation, consider the following solved cases.
compound | measurement_name | value
CCN1CCc2cccc(CN3CCCC[C@@H]3COc3ccc4c(c3)CN(C3CCC(=O)NC3=O)C4=O)c21 (some centres unmarked) [Compound I-112] | Dmax | 96.9%
COc1ccccc1CN1CCCC[C@@H]1COc1ccc2c(c1)CN(C1CCC(=O)NC1=O)C2=O (some centres unmarked) [Compound I-133] | Dmax | 83.3%
CCN1CCOc2cccc(CN3CCCC[C@@H]3COc3ccc4c(c3)CN(C3CCC(=O)NC3=O)C4=O)c21 (some centres unmarked) [Compound I-179] | Dmax | 73.9%
CCN1CCN(c2ccc(F)cc2CN2CCCC[C@@H]2COc2ccc3c(c2)CN(C2CCC(=O)NC2=O)C3=O)CC1 (some centres unmarked) [Compound I-169] | Dmax | 84.6%

Could you now look at the following compound, please?
Value of measured Dmax for the entry O=C1CCC(N2Cc3cc(OC[C@H]4CCCCN4Cc4ccc5c(c4)OCO5)ccc3C2=O)C(=O)N1 (some centres unmarked) [Compound I-137] : 90%

====

- study_target: HiBit-WIZ fusion protein (Homo sapiens, UniProt O95785+Q96SW2)
- assay_remarks: Quantification of WIZ protein levels in HiBit tag fusion protein assay (WIZ HiBit assay in 293T cells)
- Assay type: cell-based
- cond: WIZ HiBit assay in 293T cells; 10-point, 5-fold dose response, highest concentration 25 μM, about 18 hours; read-out: WIZ AC50
Parameter DC50: see the listing below.

Looking up C[C@H]1CC[C@H](CC(=O)N2CCCC[C@H]2COc2ccc3c(c2)CN(C2CCC(=O)NC2=O)C3=O)CC1 (stereo partly shown) [Compound I-72do] , I see its DC50 listed as > 25 µM

Record summary for COc1ccc(CN2CCCC[C@H]2COc2ccc3c(c2)CN(C2CCC(=O)NC2=O)C3=O)cc1F (stereo partly shown) [Compound I-50a] : reported DC50 = > 25 µM

O=C1CCC(N2Cc3cc(OC[C@@H]4CCCCN4Cc4ncc[nH]4)ccc3C2=O)C(=O)N1 (stereo partly shown) [Compound I-50w] yielded DC50 of > 25 µM

Lookup result for COc1ccc(CC(=O)N2CCCC[C@H]2COc2ccc3c(c2)CN(C2CCC(=O)NC2=O)C3=O)cn1 (stereo partly shown) [Compound I-72hk] ; measured DC50: > 25 µM
